- System: Ba/F3 cells of EGFR-T790M/del19
- experimental_protocol: Drug sensitivity screening at 100 nM, Ba/F3 EGFR-T790M/del19
- Assay type: cell-based
- run_parameters: 100 nM, 72 h, DMSO = 100; experiment 3
Relative cell viability (% of DMSO control) listing for selected molecules.
# respond with the number and nothing more

Some molecules with known Relative cell viability (% of DMSO control) results, for comparison:
molecule	subject_of_test	reported_value
CO[C@H]1C[C@@H]2CC[C@@H](C)[C@@](O)(O2)C(=O)C(=O)N2CCCC[C@H]2C(=O)O[C@H]([C@H](C)C[C@@H]2CC[C@@H](OCCO)[C@H](OC)C2)CC(=O)[C@H](C)/C=C(\C)[C@@H](O)[C@@H](OC)C(=O)[C@H](C)C[C@H](C)/C=C/C=C/C=C/1C	Ba/F3 cells of EGFR-T790M/del19	30.3952
CCCS(=O)(=O)Nc1ccc(F)c(C(=O)c2c[nH]c3ncc(-c4ccc(Cl)cc4)cc23)c1F	Ba/F3 cells of EGFR-T790M/del19	104.772
C=CCNC1=C2C[C@@H](C)C[C@H](OC)[C@H](O)[C@@H](C)/C=C(\C)[C@H](OC(N)=O)[C@@H](OC)/C=C\C=C(/C)C(=O)NC(=CC1=O)C2=O	Ba/F3 cells of EGFR-T790M/del19	61.0089
C[C@H]1Oc2cc(cnc2N)-c2c(nn(C)c2C#N)CN(C)C(=O)c2ccc(F)cc21	Ba/F3 cells of EGFR-T790M/del19	104.505
CCc1cc2c(cc1N1CCC(N3CCOCC3)CC1)C(C)(C)c1[nH]c3cc(C#N)ccc3c1C2=O	Ba/F3 cells of EGFR-T790M/del19	121.189

Per the records, this molecule ( COc1cc2c(Oc3ccc(NC(=O)C4(C(=O)Nc5ccc(F)cc5)CC4)cc3F)ccnc2cc1OCCCN1CCOCC1 ) has Relative cell viability (% of DMSO control) equal to 104.986
